Target Under Test: Escherichia coli LpxH (UDP-2,3-diacylglucosamine hydrolase) (Escherichia coli (strain K12))
Measurement Notes: 50% Inhibitory Concentration (IC50) to LpxH, UMP/CMP-Glo Glycosyltransferase Assay kit
Would you mind classing the entries by IC50? Ranges: interval 1 = under 10 nM, interval 2 = from 10 nM up to 50 nM, interval 3 = 50 nM and over

In: Please report the category associated with `N[C@@H]1CC(=O)N(c2ccc(S(=O)(=O)N3CCN(c4cc(C(F)(F)[C@H]5COCCO5)cc(Cl)n4)CC3)cc2)C1` , nothing else.
Out: interval 1

====

Target Under Test: Escherichia coli LpxH (UDP-2,3-diacylglucosamine hydrolase) (Escherichia coli (strain K12))
Measurement Notes: 50% Inhibitory Concentration (IC50) to LpxH, UMP/CMP-Glo Glycosyltransferase Assay kit
Measured Property: pIC50
pIC50 is defined as minus the log10 of a concentration measured in mol/L.

Compound	pIC50
NCC1CN(c2ccc(S(=O)(=O)N3CCN(c4cc(C(F)(F)F)cc(Cl)n4)CC3)cc2F)C(=O)O1 (centres unmarked) [Example 63]	6.69
Cc1cc(C(F)(F)c2ccccc2)nc(N2CCN(S(=O)(=O)c3ccc(N4CC(N)CC4=O)cc3)CC2)n1 (centres unmarked) [Example 76]	7.56
NC1CC(=O)N(c2ccc(S(=O)(=O)N3CCN(c4cc(C(F)(F)c5cncnc5)cc(Cl)n4)CC3)cc2)C1 (centres unmarked) [Example 92]	7.02
NC1CC(=O)N(c2ccc(S(=O)(=O)N3CCN(c4cc(C(F)(F)c5cnccn5)cc(Cl)n4)CC3)cc2)C1 (centres unmarked) [Example 93]	7.91

Given item NC1CC(=O)N(c2ccc(S(=O)(=O)N3CCN(c4cc(C(F)(F)F)cc(Cl)n4)CC3)cc2)C1 (centres unmarked) [Example 1] , the value recorded as its pIC50 is 6.59

Lab note: measured pIC50 of N[C@@H]1CN(C2CC(=O)N(c3ccc(S(=O)(=O)N4CCN(c5cc(C(F)(F)F)cc(Cl)n5)CC4)cc3)C2)CC[C@H]1O (some centres unmarked) [Example 57] was 7.46

// recorded pIC50 for O=C1OC(CN2CCNCC2)CN1c1ccc(S(=O)(=O)N2CCN(c3cc(C(F)(F)F)cc(Cl)n3)CC2)cc1 (centres unmarked) [Example 29] : 7.59

response.value for NC1CN(CC2CN(c3ccc(S(=O)(=O)N4CCN(c5cc(C(F)(F)F)cc(Cl)n5)CC4)cc3)C(=O)O2)C1 (centres unmarked) [Example 31] (field: pIC50) = 8.16

Just so you know, measured pIC50 for NC1CC(=O)N(c2ccc(S(=O)(=O)N3CCN(c4cc(C(F)(F)C5CCOCC5)cc(Cl)n4)CC3)cc2)C1 (centres unmarked) [Example 95] came out at 7.24

Field pIC50 (entry N[C@@H]1CC(=O)N(c2ccc(S(=O)(=O)N3CCN(c4cc(C(F)(F)[C@@H]5CNCCO5)cc(Cl)n4)CC3)cc2)C1 [Example 104] ) reads 8.06

Recorded result, O=C1OC2(CCNCC2)CN1c1ccc(S(=O)(=O)N2CCN(c3cc(C(F)(F)F)cc(Cl)n3)CC2)cc1 [Example 14] , pIC50: 7.02

pIC50 reading for NCC1CN(C2CC(=O)N(c3ccc(S(=O)(=O)N4CCN(c5cc(C(F)(F)F)cc(Cl)n5)CC4)cc3)C2)C1 (centres unmarked) [Example 49] : 7.09

pIC50 for CN(C)C1CN(CC2CC(=O)N(c3ccc(S(=O)(=O)N4CCN(c5cc(C(F)(F)F)cc(Cl)n5)CC4)cc3)C2)C1 (centres unmarked) [Example 42] is 7.82

====

Target Under Test: Escherichia coli LpxH (UDP-2,3-diacylglucosamine hydrolase) (Escherichia coli (strain K12), UniProt P43341)
Sequence (P43341 whole entry): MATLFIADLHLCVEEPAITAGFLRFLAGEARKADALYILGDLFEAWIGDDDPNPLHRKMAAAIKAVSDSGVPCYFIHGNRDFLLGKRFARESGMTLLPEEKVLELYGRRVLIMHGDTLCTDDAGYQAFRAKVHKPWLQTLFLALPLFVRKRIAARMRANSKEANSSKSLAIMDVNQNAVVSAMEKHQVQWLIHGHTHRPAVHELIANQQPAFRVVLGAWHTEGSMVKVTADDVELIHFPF
Measurement Notes: 50% Inhibitory Concentration (IC50) to LpxH, UMP/CMP-Glo Glycosyltransferase Assay kit
IC50 strictly less than 20 nM = YES. Otherwise NO.

Study these solved cases before continuing.
> print(dat)
                                   compound  category
1  NC1CC(=O)N(c2ccc(S(=O)(=O)N3CCN(c4cc(C(F)(F)c5ccncc5)cc(Cl)n4)CC3)cc2)C1 (centres unmarked)       YES
2  N[C@@H]1CC(=O)N(c2ccc(S(=O)(=O)N3CCN(c4cc(C(F)(F)C5CNC5)cc(Cl)n4)CC3)cc2)C1        NO
3  O=C1O[C@H]2CCNC[C@H]2N1c1ccc(S(=O)(=O)N2CCN(c3cc(C(F)(F)F)cc(Cl)n3)CC2)cc1        NO
4  O=C1OC(CN2CC3(CNC3)C2)CN1c1ccc(S(=O)(=O)N2CCN(c3cc(C(F)(F)F)cc(Cl)n3)CC2)cc1 (centres unmarked)        NO
5  O=C1CC2(CCNCC2)CN1c1ccc(S(=O)(=O)N2CCN(c3cc(C(F)(F)F)cc(Cl)n3)CC2)cc1        NO
6  NCC1CN(c2ccc(S(=O)(=O)N3CCN(c4cc(C(F)(F)F)cc(Cl)n4)CC3)cc2)C(=O)O1 (centres unmarked)        NO

In: Take the compound NCC1CN(c2ccc(S(=O)(=O)N3CCN(c4cc(C(F)(F)c5ccccc5)cc(Cl)n4)CC3)cc2)C(=O)O1 (centres unmarked) and say whether its IC50 is less than 20 nM.
Out: YES

In: Please let me know if NCC1CN(CC2CN(c3ccc(S(=O)(=O)N4CCN(c5cc(C(F)(F)F)cc(Cl)n5)CC4)cc3)C(=O)O2)C1 (centres unmarked) shows IC50 below 20 nM.
Out: YES

In: Is IC50 strictly under 20 nM for the entry N[C@@H]1CN(C2CC(=O)N(c3ccc(S(=O)(=O)N4CCN(c5cc(C(F)(F)F)cc(Cl)n5)CC4)cc3)C2)C[C@H]1O (some centres unmarked) ?
Out: YES

====

Target Under Test: Escherichia coli LpxH (UDP-2,3-diacylglucosamine hydrolase) (Escherichia coli (strain K12))
Measurement Notes: 50% Inhibitory Concentration (IC50) to LpxH, UMP/CMP-Glo Glycosyltransferase Assay kit
Measured Property: IC50 (nM)
Hi! Could you send only the number? It should be in nM, unit omitted.

> print(dat)
                                   compound  result.number
1  O=C1CC(N2CC3(CNC3)C2)CN1c1ccc(S(=O)(=O)N2CCN(c3cc(C(F)(F)F)cc(Cl)n3)CC2)cc1 (stereo not shown)           34.2
2  N[C@@H]1CC(=O)N(c2ccc(S(=O)(=O)N3CCN(c4cc(C(F)(F)[C@H]5CCCNC5)cc(Cl)n4)CC3)cc2)C1           35.1
3  O=C1CC(N2C[C@@H](O)[C@@H](O)C2)CN1c1ccc(S(=O)(=O)N2CCN(c3cc(C(F)(F)F)cc(Cl)n3)CC2)cc1 (stereo partly shown)           6.78
4  NC1CC(=O)N(c2ccc(S(=O)(=O)N3CCN(c4cc(C(F)(F)C5COC5)cc(Cl)n4)CC3)cc2)C1 (stereo not shown)           88.6
5  NCCNC1CC(=O)N(c2ccc(S(=O)(=O)N3CCN(c4cc(C(F)(F)F)cc(Cl)n4)CC3)cc2)C1 (stereo not shown)           45.7
6  NCC1COC(=O)N1c1ccc(S(=O)(=O)N2CCN(c3cc(C(F)(F)F)cc(Cl)n3)CC2)cc1 (stereo not shown)           44.2

Consider now this further compound.
Notebook: `Cc1nc(N2CCN(S(=O)(=O)c3ccc(N4C[C@H](N)CC4=O)cc3)CC2)cc(C(F)(F)c2ccccc2)n1` , IC50 read as 3.69

====

Target Under Test: Escherichia coli LpxH (UDP-2,3-diacylglucosamine hydrolase) (Escherichia coli (strain K12))
Measurement Notes: 50% Inhibitory Concentration (IC50) to LpxH, UMP/CMP-Glo Glycosyltransferase Assay kit
Experimental: Example 121: 50% Inhibitory Concentration (IC50) to UDP-2,3-diacylglucosamine hydrolase (LpxH) The inhibitory potency of molecules to UDP-2,3-diacylglucosamine hydrolase (LpxH) was determined using the UMP/CMP-Glo™ Glycosyltransferase Assay kit. […] The assay kit could quantify the UMP production by convert the UMP to ATP and generate light in a luciferase reaction. The compound's effect on the LpxH activity is detected by measuring the light using a luminometer (Envision).
Please use 1 (yes) for IC50 under 0.1 µM and 0 (no) for everything else, ties included.

Field: example entries. Status: answers known.
> print(dat)
                                   compound  category
1  CN(C)CC1CN(CC2CC(=O)N(c3ccc(S(=O)(=O)N4CCN(c5cc(C(F)(F)F)cc(Cl)n5)CC4)cc3)C2)C1 (stereo not shown)   1 (yes)
2  N#CC1CN(c2cc(C(F)(F)F)cc(Cl)n2)CCN1S(=O)(=O)c1ccc(N2CC(N)CC2=O)cc1 (stereo not shown)    0 (no)
3  O=C1O[C@@H]2CNCC[C@@H]2N1c1ccc(S(=O)(=O)N2CCN(c3cc(C(F)(F)F)cc(Cl)n3)CC2)cc1    0 (no)
4  NC1CCN(c2ccc(S(=O)(=O)N3CCN(c4cc(C(F)(F)F)cc(Cl)n4)CC3)cc2)C1=O (stereo not shown)    0 (no)

In: Please let me know if CC1(C)C(=O)N(c2ccc(S(=O)(=O)N3CCN(c4cc(C(F)(F)F)cc(Cl)n4)CC3)cc2)CC1N (stereo not shown) shows IC50 below 0.1 µM.
Out: 0 (no)

In: Hello, is IC50 of the following compound strictly smaller than 0.1 µM? CNCC1CN(c2ccc(S(=O)(=O)N3CCN(c4cc(C(F)(F)F)cc(Cl)n4)CC3)cc2)C(=O)O1 (stereo not shown)
Out: 1 (yes)

In: Field: below-cutoff. Rule: recorded IC50 strictly less than 0.1 µM. Subject: NC1CC(=O)N(c2ccc(S(=O)(=O)N3CCN(c4cc(C(F)(F)c5ccccn5)cc(Cl)n4)CC3)cc2)C1 (stereo not shown)
Out: 1 (yes)
